experiment-summary: Luminescence Cell-Based Dose Response HTS to Identify Activators of Luciferase Translation or Activity in H4 […] Cells. [Related pubchem assays: 1829 (Project Summary), 1814 (Primary HTS)]
Assay type: functional
Active and inactive are the calls of the source.
We begin with a simple list: items and their reported EC50.

Example entries and their recorded answers appear below.
>  <molecule>
CN(C)c1ccc(/C=C2/C(=N\O)C3CCN2CC3)cc1

>  <recorded-result>
6.23 µM (active)

$$$$
>  <molecule>
CC(C)c1ccc(-c2cc(C(=O)NN3CCN(C)CC3)c3ccccc3n2)cc1

>  <recorded-result>
3.27 µM (active)

$$$$
>  <molecule>
CC(Sc1nnc(NCc2ccccc2)s1)C(=O)Nc1ccc2c(c1)C(=O)c1ccccc1C2=O (stereo unspecified)

>  <recorded-result>
9.18 µM (active)

$$$$

[in] I am curious: what EC50 value has been reported for O=c1c2ccccc2nnn1-c1ccc(Br)cc1 ?
[out] 0.1 µM (active)

[in] I am curious: what EC50 value has been reported for Oc1[nH]c2ccccc2c1N=Nc1ccccc1F ?
[out] 8.29 µM (active)

[in] I am curious: what EC50 value has been reported for CCOc1cc(/C=C2\SC(=S)N(Nc3ccccc3)C2=O)ccc1O ?
[out] 9.91 µM (active)

###

tgt: Induced myeloid leukemia cell differentiation protein Mcl-1 (Homo sapiens)
Sequence (Q07820 whole entry): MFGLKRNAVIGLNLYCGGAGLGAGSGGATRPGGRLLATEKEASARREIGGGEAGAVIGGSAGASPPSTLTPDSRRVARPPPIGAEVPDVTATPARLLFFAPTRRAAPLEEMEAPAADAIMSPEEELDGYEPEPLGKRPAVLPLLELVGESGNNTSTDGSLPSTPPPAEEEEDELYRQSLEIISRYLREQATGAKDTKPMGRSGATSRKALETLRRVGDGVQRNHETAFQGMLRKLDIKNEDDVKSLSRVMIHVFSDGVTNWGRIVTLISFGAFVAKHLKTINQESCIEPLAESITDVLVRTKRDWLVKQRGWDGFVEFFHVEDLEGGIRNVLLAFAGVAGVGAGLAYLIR
Type: functional
The source made the active and inactive calls.
We begin with a simple list: items and their reported IC50.

Example entries and their recorded answers appear below.
>  <compound>
Cc1ccc(OCCCC(=O)Nc2ccccc2C(F)(F)F)cc1

>  <metric>
IC50

>  <recorded-result>
> 54 µM (not active)

$$$$
>  <compound>
COC(=O)c1ccc(CSc2nc(-c3ccccc3)cs2)o1

>  <metric>
IC50

>  <recorded-result>
3.49 µM (not active)

$$$$
>  <compound>
COCCn1nnnc1C(c1ccc(O)c(OC)c1)N1CCc2ccccc2C1 (stereo not given)

>  <metric>
IC50

>  <recorded-result>
7.06 µM (active)

$$$$
>  <compound>
Cn1c(SCC(=O)Nc2ccc3nc(SCC(=O)N4CCCC4)sc3c2)nnc1-c1ccc(N)cc1

>  <metric>
IC50

>  <recorded-result>
1.82 µM (active)

$$$$
>  <compound>
O=C(O)c1ccccc1N/N=C/c1c(Sc2nnnn2-c2ccccc2)nc2ccccn2c1=O

>  <metric>
IC50

>  <recorded-result>
2.58 µM (active)

$$$$
>  <compound>
CC[C@H](C)NC(=O)c1ccc(Cn2c(=S)[nH]c3c([nH]c4ccc(OC)cc43)c2=O)cc1

>  <metric>
IC50

>  <recorded-result>
5.25 µM (active)

$$$$

[in] I am curious: what IC50 value has been reported for O=C1NC(=S)S/C1=C\c1c(-c2ccccc2)[nH]c2ccccc12 ?
[out] 4.97 µM (active)

[in] I am curious: what IC50 value has been reported for O=C(COC(=O)Cn1cnc2ccccc21)Nc1ccc2c(c1)C(=O)c1ccccc1C2=O ?
[out] 6.69 µM (active)

[in] I am curious: what IC50 value has been reported for N#Cc1c(NC(=O)c2cccc(S(=O)(=O)Nc3ccc(C(=O)O)cc3)c2)sc2c1CCCC2 ?
[out] 6.52 µM (active)

[in] I am curious: what IC50 value has been reported for Cc1ccc(/C=C/C(=O)Nc2ccc([N+](=O)[O-])c(NC(=O)/C=C/c3ccc(C)o3)c2)o1 ?
[out] 2.12 µM (active)
